Sourced from patent US20240109881A1

Quick reference: ALE THP1 HTRF YMIN of the listed items.
Target: IRAK4 (Homo sapiens, UniProt Q9NWZ3)
Construct: endogenous in cells; host or cells: THP-1 cells
Sequence (Q9NWZ3 1-460): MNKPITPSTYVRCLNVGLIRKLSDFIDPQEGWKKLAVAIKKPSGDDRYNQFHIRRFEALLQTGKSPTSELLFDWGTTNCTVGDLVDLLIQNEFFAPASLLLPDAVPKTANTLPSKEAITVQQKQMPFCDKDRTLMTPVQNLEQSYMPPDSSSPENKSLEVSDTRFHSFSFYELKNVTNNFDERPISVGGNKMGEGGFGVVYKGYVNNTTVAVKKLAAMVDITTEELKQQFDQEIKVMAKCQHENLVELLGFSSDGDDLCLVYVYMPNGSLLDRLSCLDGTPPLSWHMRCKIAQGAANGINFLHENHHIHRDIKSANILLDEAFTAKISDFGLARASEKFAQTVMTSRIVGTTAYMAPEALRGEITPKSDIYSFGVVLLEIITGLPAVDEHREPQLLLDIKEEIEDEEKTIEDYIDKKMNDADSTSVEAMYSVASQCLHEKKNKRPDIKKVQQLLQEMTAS
Assay: ALE THP1 HTRF (Advanced Lipoxidation End Product THP1 Homogeneous Time Resolved Fluorescence)
Assay type: cell-based
Conditions: THP1 cells
The reply should contain only the number, in %.

Here are 2 compounds together with their reported answers.
[
  {
    "compound": "C[C@H](C#N)Nc1cc(-n2ncc3cc(C#N)c(N)nc32)ncc1C(=O)N[C@H]1CC[C@H](CCN2CCN(c3ccc(C4CCC(=O)NC4=O)cc3)[C@H](C)C2)CC1 (stereo partly drawn)",
    "systemTested": "IRAK4 (Homo sapiens, UniProt Q9NWZ3)",
    "ALE THP1 HTRF YMIN, %": 9.7
  },
  {
    "compound": "O=C1CCC(N2C(=O)c3ccc(N4CCN(C(=O)C5CCC(NC(=O)c6cnc(Nc7ccc8ncsc8c7)cc6NC6CCCC6)CC5)CC4)cc3C2=O)C(=O)N1 (stereo not drawn)",
    "systemTested": "IRAK4 (Homo sapiens, UniProt Q9NWZ3)",
    "ALE THP1 HTRF YMIN, %": 32.7
  }
]

Now consider the entry below.
With IRAK4 (Homo sapiens, UniProt Q9NWZ3) as the test system, C[C@H](C#N)Nc1cc(-n2ncc3cc(C#N)c(N)nc32)ncc1C(=O)N[C@H]1CC[C@H](CCN2CCN(c3ccc(C4CCC(=O)NC4=O)cc3)CC2)CC1 (stereo partly drawn) showed ALE THP1 HTRF YMIN of 7.3

* * *

molecular target: IRAK4 (Homo sapiens, UniProt Q9NWZ3); construct: endogenous in cells; host or cells: THP-1 cells; assay: LVL THP1 HTRF (THP1 Homogeneous Time Resolved Fluorescence); format: cell-based; settings: THP1 cells, 18 h incubation with compound
experimentalEndpoint: LVL THP1 HTRF YMIN

// solved cases for LVL THP1 HTRF YMIN follow
[
  {
    "compound": "COc1cc(C2CCC(=O)NC2=O)ccc1N1CCN(CC[C@H]2CC[C@H](NC(=O)c3cnc(-n4ncc5cc(C#N)c(N)nc54)cc3N[C@H](C)C#N)CC2)C[C@H]1C (stereo partly drawn)",
    "LVL THP1 HTRF YMIN": "<0.5%"
  },
  {
    "compound": "C[C@H](C#N)Nc1cc(-n2ncc3cc(C#N)cnc32)ncc1C(=O)N[C@H]1CC[C@H](CCN2[C@@H]3C[C@H]2CN(c2ccc(C4CCC(=O)NC4=O)cc2)C3)CC1 (stereo partly drawn)",
    "LVL THP1 HTRF YMIN": "<0.5%"
  }
]

--- query ---
The compound listed as C[C@H](C#N)Nc1cc(-n2ncc3cc(C#N)cnc32)ncc1C(=O)N[C@H]1CC[C@H](CCN2CC3COCC(C2)N3c2ccc(C3CCC(=O)NC3=O)cc2)CC1 (stereo partly drawn) has a reported LVL THP1 HTRF YMIN of 39.8%
